# test: Cell survival of HB4a/REP8 cells, plates scored by eye for cell growth
# Assay type: cell-based
# particulars: human, 2 hour exposure, read-out: dose up to which no cytotoxicity is shown
outcome.measure: MNTC at 2 h

Input line: MNTC at 2 h lookup needed for NC(=O)c1cc(N2CC2)c([N+](=O)[O-])cc1[N+](=O)[O-] [CB 1954, 5-(aziridin-1-yl)-2,4-dinitrobenzamide] , thanks.
Output line: > 100 µM
